Taken from patent US20220144842A1.

targetUnderTest: IRAK4 (Homo sapiens, UniProt Q9NWZ3)
Construct: host or cells: human PBMCs
Sequence (Q9NWZ3 1-460): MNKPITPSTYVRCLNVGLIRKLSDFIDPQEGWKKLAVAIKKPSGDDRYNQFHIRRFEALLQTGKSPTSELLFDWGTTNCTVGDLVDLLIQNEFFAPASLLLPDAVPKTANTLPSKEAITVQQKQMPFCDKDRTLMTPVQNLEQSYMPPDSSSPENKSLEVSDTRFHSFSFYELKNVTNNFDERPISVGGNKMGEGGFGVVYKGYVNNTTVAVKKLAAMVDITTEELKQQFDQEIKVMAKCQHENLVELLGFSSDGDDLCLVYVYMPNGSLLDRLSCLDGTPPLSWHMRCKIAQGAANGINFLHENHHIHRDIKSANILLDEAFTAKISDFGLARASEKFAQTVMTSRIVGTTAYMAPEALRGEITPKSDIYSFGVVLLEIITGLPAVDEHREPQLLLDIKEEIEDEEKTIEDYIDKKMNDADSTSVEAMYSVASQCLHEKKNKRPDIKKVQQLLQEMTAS
experimentDescription: IRAK4 Human PBMC TNFα Cell Based Assay (AlphaLISA)
assaySetup: human PBMCs stimulated by R848 (0.5 μM), 4 h, TNFα in culture medium; read-out: IRAK4 PBMC AlphaLISA R848 (IC50)
Quick list: IC50 per entry.

[
  {
    "compound": "Brc1n[nH]c2nc(Nc3cnn(C4CCOCC4)c3)nc(N[C@H]3CC[C@H](N4CCOCC4)CC3)c12 [Example 1]",
    "IC50": "35 nM"
  },
  {
    "compound": "c1cncc(-c2n[nH]c3nc(Nc4cnn(C5CCOCC5)c4)nc(N[C@H]4CC[C@H](N5CCOCC5)CC4)c23)c1 [Example 2]",
    "IC50": "24 nM"
  },
  {
    "compound": "c1ccc(-c2n[nH]c3nc(Nc4cnn(C5CCOCC5)c4)nc(N[C@H]4CC[C@H](N5CCOCC5)CC4)c23)cc1 [Example 5]",
    "IC50": "63 nM"
  },
  {
    "compound": "Cc1cc(Nc2nc(N[C@H]3CC[C@H](N4CCOCC4)CC3)c3cn[nH]c3n2)sn1 [Example 6]",
    "IC50": "1.6 nM"
  }
]
